Subject Of Test: G12D-mutant human KRAS (amino acid residues 1-188) (Homo sapiens, UniProt P01116, G12D)
Construct: G12D or G12C-mutant human KRAS (amino acid residues 1-188) with FLAG tag; made in house; host or cells: E. coli
Protocol Summary: KRAS Binding Disruption Assay (AlphaScreen; biotinylated KRpep-2d analogue or RAF1-RBD), G12D
Measurement Conditions: KRAS G12D; geometric mean; read-out: KRAS GMean IC50 (uM) MUTATION: G12D
Reported Endpoint: IC50

>>> result("CNCCNc1nc(N2C[C@H]3CC[C@@H](C2)N3)c2ccc(-c3cc(O)cc4ccccc34)cc2n1 [P-0061]")
"0.0001 to 10 µM"
>>> result("CN(C)C(C)(C)CNc1nc(N2C[C@H]3CC[C@@H](C2)N3)c2ccc(-c3cc(O)cc4ccccc34)c(F)c2n1 [P-0630]")
"0.0001 to 10 µM"
>>> result("Oc1cc(-c2ccc3c(N4C[C@H]5CC[C@@H](C4)N5)nc(N4CC(N5CC(F)C5)C4)nc3c2F)c2ccccc2c1 [P-0638]")
"0.0001 to 10 µM"
>>> result("O=C(CCCN1CCCCC1)N1[C@@H]2CC[C@H]1CN(c1nc(OCC34CCCN3CCC4)nc3c(F)c(-c4cc(O)cc5ccccc45)ccc13)C2 [P-0150]")
"0.0001 to 10 µM"
>>> result("Nc1ccc(F)c(-c2c(F)cc3c(N4C[C@H]5CC[C@@H](C4)N5)nc(OCC45CCCN4CCC5)nc3c2F)c1 [P-0608]")
"0.0001 to 10 µM"

Please look at the following molecule next.
Prompt: Return IC50 (reported value) for this molecule: CN1CCC[C@H]1COc1nc(N2C[C@H]3CC[C@@H](C2)N3)c2cnc(N3CC(=O)Nc4cccc(Cl)c43)c(F)c2n1 [P-0444]
Completion: 10 to 100 µM

* * *

Subject Of Test: G12V-mutant human KRAS (amino acid residues 1-188) (Homo sapiens, UniProt P01116, G12V)
Construct: G12V-mutant human KRAS (amino acid residues 1-188) with FLAG tag was purified from E. coli; made in house; host or cells: E. coli
Protocol Summary: KRAS Binding Competition Assay (AlphaScreen; biotinylated KRpep-2d analogue), G12V
Measurement Conditions: geometric mean, read-out: KRAS GMean IC50 (uM) MUTATION: G12V
Reported Endpoint: IC50

Prompt: Look up IC50 of Cc1cccc2cccc(-c3ccc4c(N5CC6CCC(C5)N6C(=O)CC#N)nc(OC[C@@H]5CCCN5C)nc4c3F)c12 (racemic) [P-0019] and report it.
Completion: 10 to 100 µM

Prompt: Recall and state the measured IC50 for OCC1CCN(c2nc(N3C[C@H]4CC[C@@H](C3)N4)c3ccc(-c4cc(O)cc5ccccc45)c(F)c3n2)C1 (stereo partly drawn) [P-0634] .
Completion: 100 to 1000 µM

Prompt: Fill in reported IC50 for this entry: CN(C)CCc1nc(N2C[C@H]3CC[C@@H](C2)N3)c2ccc(-c3cc(O)cc4ccccc34)c(F)c2n1 [P-0413]
Completion: 10 to 100 µM

Where do the numbers come from? From patent US20230081426A1.
